B1: SPOPL (parent)
chain: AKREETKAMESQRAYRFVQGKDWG

variants of: B1; test: protein stability index of a GFP-peptide fusion (GPS, HEK-293T) (PSI 1-6); higher = more stable; settings: c terminus: a fixed tail appended;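 further: lentivirally expressed fusions sorted by FACS into six bins by GFP to DsRed ratio, PSI derived from sequencing read proportions per bin multiplied by bin number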
PROPERTY_NAME: protein stability index
// response body must contain only the number

1. Q19H; 3.04

Provide one value: measured protein stability index of "Q12W"
2.4

Give recorded protein stability index. "R3Q"
3.22

For the variant "T6A" , report protein stability index.
2.48

For the variant "M9E" , give its reported protein stability index.
3.85

Write down protein stability index measured for item "G20N"
3.76

Determine its reported protein stability index: "W23N"
3.65

Name the recorded protein stability index of the item "A1T" in your answer.
2.93

Provide only the value of recorded protein stability index for "Q19R"
3.93
